test system: M-1-P-producing enzyme; experiment: Maltose transfer reaction without phosphate, HPLC analysis of products; format: biochemical, Corynebacterium glutamicum JCM1321; details: 2.0% substrate, 0.16 U/mL enzyme, one hour at 37°C
metric: Product (Peak area x 10^6): Glucose

input: Output Product (Peak area x 10^6): Glucose of OC[C@H]1O[C@H](O[C@H]2[C@H](O)[C@@H](O)[C@@H](O[C@H]3[C@H](O)[C@@H](O)[C@@H](O[C@H]4[C@H](O)[C@@H](O)[C@@H](O[C@H]5[C@H](O)[C@@H](O)[C@@H](O[C@H]6[C@H](O)[C@@H](O)C(O)O[C@@H]6CO)O[C@@H]5CO)O[C@@H]4CO)O[C@@H]3CO)O[C@@H]2CO)[C@H](O)[C@@H](O)[C@@H]1O (stereo partly shown) [Maltohexaose]
output: 0.05 x 10^6

FYI, the data here is from patent EP1910527B1.
